# Test system: pFGFR4 in MDA-MB-453 cells
# assay procedure: FGFR4 signaling, pFGFR4 (MDA); Western blot (Method A), MSD (Method B), ELISA (Method C)
# Assay type: cell-based
# conditions used: Homo sapiens, MDA-MB-453, MDA-MB-453 cells; Method B (MSD) for signaling EC50 determination

- molecule: "C=CC(=O)Nc1ccccc1Nc1ncc2c(n1)N(Cc1cccc(F)c1)C(=O)N(c1c(Cl)c(OC)cc(OC)c1Cl)C2 [Compound I-12]"
  EC50: "< 100 nM"
- molecule: "C=CC(=O)Nc1ccccc1Nc1ncc2c(n1)N(CC(=O)OC(C)(C)C)C(=O)N(c1cc(OC)cc(OC)c1)C2 [Compound I-96]"
  EC50: "> 1000 nM"
- molecule: "C=CC(=O)NC1CCCCC1Nc1ncc2c(n1)N(C)C(=O)N(c1cc(OC)cc(OC)c1)C2 (racemic) [Compound I-18]"
  EC50: "> 1000 nM"
- molecule: "CCC(=O)Nc1ccccc1Nc1ncc2c(n1)N(C)C(=O)N(c1c(Cl)c(OC)cc(OC)c1Cl)C2 [Compound I-235]"
  EC50: "501 to 999 nM"
